test system: Human immunodeficiency virus 1; test: Antiviral activity against Human immunodeficiency virus 1 infected human H9 cells assessed as inhibition of viral replication; type: functional, organism-based; conditions: Human immunodeficiency virus 1, H9; read-out: pEC50 (converted)
Endpoint: log10 EC50 (log10 of the value in nM)

| Molecule | Assay System | log10 EC50 |
| --- | --- | --- |
| CCC(C)(CC(=O)O)CC(=O)OC[C@]12CC[C@@H](C(C)C)[C@@H]1[C@H]1CC[C@@H]3[C@@]4(C)CC[C@H](OC(=O)CC(C)(CC)CC(=O)O)C(C)(C)[C@@H]4CC[C@@]3(C)[C@]1(C)CC2 (stereo not given in full) | Human immunodeficiency virus 1 | 1.88 |
| C=C(C)[C@@H]1CC[C@]2(COC(=O)CC3(CC(=O)O)CCCC3)CC[C@]3(C)[C@H](CC[C@@H]4[C@@]5(C)CC[C@H](OC(=O)CC6(CC(=O)O)CCCC6)C(C)(C)[C@@H]5CC[C@]43C)[C@@H]12 | Human immunodeficiency virus 1 | 1.89 |
| C=C(C)[C@@H]1CC[C@]2(CN)CC[C@]3(C)[C@H](CC[C@@H]4[C@@]5(C)CC[C@H](N)C(C)(C)[C@@H]5CC[C@]43C)[C@@H]12 | Human immunodeficiency virus 1 | 3.03 |
| C=C(C)[C@@H]1CC[C@]2(COC(=O)CC(C)(C)CC(=O)O)CC[C@]3(C)[C@H](CC[C@@H]4[C@@]5(C)CC[C@H](O)C(C)(C)[C@@H]5CC[C@]43C)[C@@H]12 | Human immunodeficiency virus 1 | 3.56 |
| C=C(C)[C@@H]1CC[C@]2(C(=O)NCCCCCCCC(=O)N[C@@H](CC(C)C)[C@@H](O)CC(=O)O)CC[C@]3(C)[C@H](CC[C@@H]4[C@@]5(C)CC[C@H](O)C(C)(C)[C@@H]5CC[C@]43C)[C@@H]12 | Human immunodeficiency virus 1 | 2.52 |

====

Here the recorded log10 of EC50 is given for each entry.
system: Human immunodeficiency virus 1; assay: Antiviral activity against Human immunodeficiency virus 1 infected human H9 cells assessed as inhibition of viral replication; type: functional, organism-based; conditions: Human immunodeficiency virus 1, H9; read-out: pEC50 (converted)
Endpoint: log10 of EC50 (log10 of the value in nM)

| Compound | Measured |
| --- | --- |
| C=C(C)[C@@H]1CC[C@]2(COC(=O)CC3(CC(=O)O)CCCC3)CC[C@]3(C)[C@H](CC[C@@H]4[C@@]5(C)CCC(=O)C(C)(C)[C@@H]5CC[C@]43C)[C@@H]12 | 3.63 |
| C=C(C)[C@@H]1CC[C@]2(CO)CC[C@]3(C)[C@H](CC[C@@H]4[C@@]5(C)CC[C@@H](O)C(C)(C)[C@@H]5CC[C@]43C)[C@@H]12 [3-EPI-BETULIN] | 3.56 |
| CC(C)[C@@H]1CC[C@]2(C(=O)O)CC[C@]3(C)[C@H](CC[C@@H]4[C@@]5(C)CC[C@H](OC(=O)C(C)(C)CC(=O)O)C(C)(C)[C@@H]5CC[C@]43C)[C@@H]12 | 2.75 |
| CC(C)[C@@H]1CC[C@]2(C(=O)OC(=O)OCN(C)C)CC[C@]3(C)[C@H](CC[C@@H]4[C@@]5(C)CCC(=O)C(C)(C)[C@@H]5CC[C@]43C)[C@@H]12 | 3.58 |
| C=C(C)[C@@H]1CC[C@]2(C(=O)O)CC[C@]3(C)[C@H](CC[C@@H]4[C@@]5(C)CC[C@H](OC(=O)CC(C)(C)CC(=O)O)C(C)(C)[C@@H]5CC[C@]43C)[C@@H]12 | 0.36 |
| C=C(C)[C@@H]1CC[C@]2(C(=O)O)CC[C@]3(C)[C@H](CC[C@@H]4[C@@]5(C)CC[C@H](OC(=O)CCCC(=O)O)C(C)(C)[C@@H]5CC[C@]43C)[C@@H]12 | 1.64 |
| C=C(C)[C@@H]1CC[C@]2(C(=O)O)CC[C@]3(C)[C@H](CC[C@@H]4[C@@]5(C)CC[C@H](OC(=O)C(C)(C)CC(=O)O)C(C)(C)[C@@H]5CC[C@]43C)[C@@H]12 | 3.43 |
| C=C(C)[C@@H]1CC[C@]2(COC(=O)CC3(CC(=O)O)CCCC3)CC[C@]3(C)[C@H](CC[C@@H]4[C@@]5(C)CC[C@H](O)C(C)(C)[C@@H]5CC[C@]43C)[C@@H]12 | 3.32 |
| C=C(C)[C@@H]1CC[C@]2(NOC(=O)CCC(C)(C)CC(=O)O)CC[C@]3(C)[C@H](CC[C@@H]4[C@@]5(C)CC/C(=N\OC(=O)CCC(C)(C)CC(=O)O)C(C)(C)[C@@H]5CC[C@]43C)[C@@H]12 | 3.66 |
| C=C(COC(=O)CC1(CC(=O)O)CCCC1)[C@@H]1CC[C@]2(COC(=O)CC3(CC(=O)O)CCCC3)CC[C@]3(C)[C@H](CC[C@@H]4[C@@]5(C)CC[C@H](OC(=O)CC6(CC(=O)O)CCCC6)C(C)(C)[C@@H]5CC[C@]43C)[C@@H]12 | 0.73 |

====

assay: Therapeutic index, ratio of IC50 for human H9 cells to EC50 for HIV1; assay type: cell-based; details: h9

| Compound | pTI |
| --- | --- |
| C=C(C)[C@@H]1CC[C@]2(C(=O)O)CC[C@]3(C)[C@H](CC[C@@H]4[C@@]5(C)CC[C@H](O)C(C)(C)[C@@H]5CC[C@]43C)[C@@H]12 (stereo in doubt; 1) | -0.969 |
| C=C(C)[C@@H]1CC[C@]2(COC(C)=O)CC[C@]3(C)[C@H](CC[C@@H]4[C@@]5(C)CC[C@H](OC(C)=O)C(C)(C)[C@@H]5CC[C@]43C)[C@@H]12 [BETULIN DIACETATE] | 0 |
| CC(C)[C@@H]1CC[C@]2(C(=O)OCc3ccccc3)CC[C@]3(C)[C@H](CC[C@@H]4[C@@]5(C)CC[C@H](O)C(C)(C)[C@@H]5CC[C@]43C)[C@@H]12 | -0.255 |
| C=C(C)[C@@H]1CC[C@]2(COC(=O)CC(C)(C)CC(=O)O)CC[C@]3(C)[C@H](CC[C@@H]4[C@@]5(C)CCC(=O)C(C)(C)[C@@H]5CC[C@]43C)[C@@H]12 | -0.462 |
| CC(C)[C@@H]1CC[C@]2(C(=O)O)CC[C@]3(C)[C@H](CC[C@@H]4[C@@]5(C)CC[C@H](OC(=O)C67CCC(C)(C(=O)O6)C7(C)C)C(C)(C)[C@@H]5CC[C@]43C)[C@@H]12 (stereo not given in full) | -0.301 |

====

tested on: Human immunodeficiency virus 1; assay: Antiviral activity against Human immunodeficiency virus 1 infected human H9 cells assessed as inhibition of viral replication; type: functional, organism-based; conditions: Human immunodeficiency virus 1, H9; read-out: pEC50 (converted)
Entries are grouped by EC50 into these classes: bottom bin = under 0.2 µM, middle bin = from 0.2 µM up to 2 µM, top bin = 2 µM and over

| Compound | Class Label |
| --- | --- |
| C=C(C)[C@@H]1CC[C@]2(/C=N/O)CC[C@]3(C)[C@H](CC[C@@H]4[C@@]5(C)CC/C(=N\O)C(C)(C)[C@@H]5CC[C@]43C)[C@@H]12 | middle bin |
| C=C(C)[C@@H]1CC[C@]2(C(=O)OC(=O)N3CCOCC3)CC[C@]3(C)[C@H](CC[C@@H]4[C@@]5(C)CC[C@H](O)C(C)(C)[C@@H]5CC[C@]43C)[C@@H]12 | top bin |
| CC(C)CC(=O)O[C@H]1CC[C@]2(C)[C@H]3CC[C@@H]4[C@H]5[C@H](C(C)C)CC[C@]5(C(=O)O)CC[C@@]4(C)[C@]3(C)CC[C@H]2C1(C)C | middle bin |
| C=C(C)[C@@H]1CC[C@]2(COC(=O)CC(C)(C)CC(=O)O)CC[C@]3(C)[C@H](CC[C@@H]4[C@@]5(C)CC[C@H](OC(=O)CC(C)(C)CC(=O)O)C(C)(C)[C@@H]5CC[C@]43C)[C@@H]12 | bottom bin |
| CC(C)[C@@H]1CC[C@]2(COC(=O)CC3(CC(=O)O)CCCC3)CC[C@]3(C)[C@H](CC[C@@H]4[C@@]5(C)CC[C@H](OC(=O)CC6(CC(=O)O)CCCC6)C(C)(C)[C@@H]5CC[C@]43C)[C@@H]12 | middle bin |
| CC(C)[C@@H]1CC[C@]2(C(=O)O)CC[C@]3(C)[C@H](CC[C@@H]4[C@@]5(C)CC[C@H](OC(=O)C67CCC(C)(C(=O)O6)C7(C)C)C(C)(C)[C@@H]5CC[C@]43C)[C@@H]12 (some centres undefined) | middle bin |
| C=C(C)[C@@H]1CC[C@]2(CNC(=O)CC(C)(C)CC(=O)O)CC[C@]3(C)[C@H](CC[C@@H]4[C@@]5(C)CC[C@H](NC(=O)CC(C)(C)CC(=O)O)C(C)(C)[C@@H]5CC[C@]43C)[C@@H]12 | middle bin |
| CC(C)[C@@H]1CC[C@]2(C(=O)OCc3ccccc3)CC[C@]3(C)[C@H](CC[C@@H]4[C@@]5(C)CC[C@H](OC(=O)CC(C)(C)C(=O)O)C(C)(C)[C@@H]5CC[C@]43C)[C@@H]12 | middle bin |
| C=C(C)[C@@H]1CC[C@]2(COC(=O)CCCC(=O)O)CC[C@]3(C)[C@H](CC[C@@H]4[C@@]5(C)CC[C@H](OC(=O)CCCC(=O)O)C(C)(C)[C@@H]5CC[C@]43C)[C@@H]12 | top bin |
| CC(C)[C@@H]1CC[C@]2(C(=O)O)CC[C@]3(C)[C@H](CC[C@@H]4[C@@]5(C)CC[C@H](OC(=O)COCC(=O)O)C(C)(C)[C@@H]5CC[C@]43C)[C@@H]12 | bottom bin |
| CC(CC(=O)O)CC(=O)OC[C@]12CC[C@@H](C(C)C)[C@@H]1[C@H]1CC[C@@H]3[C@@]4(C)CC[C@H](OC(=O)CC(C)CC(=O)O)C(C)(C)[C@@H]4CC[C@@]3(C)[C@]1(C)CC2 (some centres undefined) | bottom bin |
| CC(C)[C@@H]1CC[C@]2(C(=O)O)CC[C@]3(C)[C@H](CC[C@@H]4[C@@]5(C)CC[C@H](OC(=O)CCCC(=O)O)C(C)(C)[C@@H]5CC[C@]43C)[C@@H]12 | middle bin |
| C=C(COC(C)=O)[C@@H]1CC[C@]2(COC(C)=O)CC[C@]3(C)[C@H](CC[C@@H]4[C@@]5(C)CC[C@H](OC(C)=O)C(C)(C)[C@@H]5CC[C@]43C)[C@@H]12 | top bin |
| C=C(C)[C@@H]1CC[C@]2(C(=O)O)CC[C@]3(C)[C@H](CC[C@@H]4[C@@]5(C)CC[C@H](OC(=O)CC(C)(C)C(=O)O)C(C)(C)[C@@H]5CC[C@]43C)[C@@H]12 | bottom bin |
| CC(C)[C@@H]1CC[C@]2(C(=O)OCc3ccccc3)CC[C@]3(C)[C@H](CC[C@@H]4[C@@]5(C)CC[C@H](O)C(C)(C)[C@@H]5CC[C@]43C)[C@@H]12 | top bin |
| C=C(COC(=O)CC(C)(C)CC(=O)O)[C@@H]1CC[C@]2(COC(=O)CC(C)(C)CC(=O)O)CC[C@]3(C)[C@H](CC[C@@H]4[C@@]5(C)CC[C@H](OC(=O)CC(C)(C)CC(=O)O)C(C)(C)[C@@H]5CC[C@]43C)[C@@H]12 | bottom bin |
| CC(C)[C@@H]1CC[C@]2(C(=O)OC(=O)OCN(C)C)CC[C@]3(C)[C@H](CC[C@@H]4[C@@]5(C)CC[C@H](O)C(C)(C)[C@@H]5CC[C@]43C)[C@@H]12 | top bin |
| C=C(C)[C@@H]1CC[C@]2(COC(C)=O)CC[C@]3(C)[C@H](CC[C@@H]4[C@@]5(C)CC[C@H](OC(C)=O)C(C)(C)[C@@H]5CC[C@]43C)[C@@H]12 [BETULIN DIACETATE] | top bin |
| C=C(C)[C@@H]1CC[C@]2(C(=O)O)CC[C@]3(C)[C@H](CC[C@@H]4[C@@]5(C)CC[C@H](OC(=O)COCC(=O)O)C(C)(C)[C@@H]5CC[C@]43C)[C@@H]12 | bottom bin |
